Cited source: patent US20260132208A1

- studyTarget: human CCR8 (human, UniProt P51685 1-355)
- testName: cell-based or functional assay
# residual hCCL1 (100 nM) Gi2 response, protocol #2, mAb 10 µg/mL listing for each entry below
measure: residual hCCL1 (100 nM) Gi2 response, protocol #2, mAb 10 µg/mL (%)

| binder | resultNumber |
| --- | --- |
| anti-CCR8 mAb 1-12 (antibody, V domains shown, Murine hybridoma mAb) VH: EVQLVETGGGLVQPKGSLKLSCAASGFTFNANAMNWVRQAPGKGLEWVARIRSKSNNYATYYADSVKDRFTISRDDSQSMLYLQMNNLKTEDTAMYYCVRGSDNYIFYAMDYWGQGTSVTVSS VL: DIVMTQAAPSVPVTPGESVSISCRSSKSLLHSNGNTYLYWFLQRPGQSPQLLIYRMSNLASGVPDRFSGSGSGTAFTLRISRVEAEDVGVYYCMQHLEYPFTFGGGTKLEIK | 68 |
| anti-CCR8 mAb 1-5 (antibody, V domains shown, Murine hybridoma mAb) VH: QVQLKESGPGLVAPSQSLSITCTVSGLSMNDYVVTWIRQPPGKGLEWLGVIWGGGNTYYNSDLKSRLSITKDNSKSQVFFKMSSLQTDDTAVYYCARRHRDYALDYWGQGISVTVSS VL: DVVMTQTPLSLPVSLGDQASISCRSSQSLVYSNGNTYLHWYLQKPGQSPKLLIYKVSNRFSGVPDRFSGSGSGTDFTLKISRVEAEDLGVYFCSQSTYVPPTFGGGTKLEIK | 97 |
| anti-CCR8 mAb 1-6 (antibody, V domains shown, Murine hybridoma mAb) VH: EVQLQQSGPELLKPGTSVKISCTTSGYTFSDYTLHWVKQSHGKSLEWIGGITPKNGDTRYDPRFKDKATLTIDKSSSAAYMELRSLTSEDSAVYYCARVARFYGVSPYAMDYWGQGASVTVSS VL: DVVMTQTPLSLPVSLGDQASISCRCTQSLLHSNGDTYLHWYLQKPGQSPKLLIYKVSNRFSGVPDRFSGSGSGTDFTLEITRVEAEDLGVYFCSQTTHVPYTFGGGTKLEIK | 17 |
